Test: Selectivity index, ratio of IC50 for human THP1 cells to IC50 for axenic amastigote stage of Leishmania infantum
Type: toxicity, cell-based, THP-1
Conditions: read-out: Ratio IC50
quantity: selectivity ratio

Worked cases, selectivity ratio given:
O=S(=O)(Nc1ccc([Se][Se]c2ccc(NS(=O)(=O)c3ccc(-c4ccccc4)cc3)cc2)cc1)c1ccc(-c2ccccc2)cc1: > 2
O=S(=O)(Nc1ccc([Se][Se]c2ccc(NS(=O)(=O)c3ccc4ccccc4c3)cc2)cc1)c1ccc2ccccc2c1: > 4.4

Now take the following molecule into account.
Query :: Name the reported selectivity ratio value associated with the molecule CCCCCCCCCCCCCCCCOP(=O)([O-])OCC[N+](C)(C)C
Result :: 7
